target: Neuronal acetylcholine receptor subunit alpha-7 (Rattus norvegicus); assay: biochemical
Sequence (Q05941 whole entry): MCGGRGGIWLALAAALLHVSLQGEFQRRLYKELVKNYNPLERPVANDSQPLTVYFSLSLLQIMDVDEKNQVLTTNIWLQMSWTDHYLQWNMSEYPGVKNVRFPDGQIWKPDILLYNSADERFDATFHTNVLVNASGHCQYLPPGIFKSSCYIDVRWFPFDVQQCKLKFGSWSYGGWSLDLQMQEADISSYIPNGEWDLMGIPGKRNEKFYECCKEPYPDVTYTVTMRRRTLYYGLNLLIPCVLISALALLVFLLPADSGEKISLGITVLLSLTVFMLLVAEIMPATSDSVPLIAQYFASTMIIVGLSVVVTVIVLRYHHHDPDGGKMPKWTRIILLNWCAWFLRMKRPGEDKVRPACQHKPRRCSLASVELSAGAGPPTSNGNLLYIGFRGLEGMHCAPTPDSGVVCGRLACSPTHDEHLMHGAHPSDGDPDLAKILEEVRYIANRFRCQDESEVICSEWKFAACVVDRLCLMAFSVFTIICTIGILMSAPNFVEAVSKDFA
Description: In vitro binding affinity towards Nicotinic acetylcholine receptor alpha7 using [125I]-alpha-Bungarotoxin in rat brain
pKi: −log10 of the molar value.

smilesStr: O=c1cccc2n1C[C@@H]1CNC[C@H]2C1
studyTarget: Neuronal acetylcholine receptor subunit alpha-7 (Rattus norvegicus)
pKi: 9.05
